Assay: RPMI8226 myeloma cell viability, profiling panel, resazurin fluorescence, basal, 24 h, PK04 Diversity Set (AID 1180);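 also: RPMI8826 multiple myeloma cell line at 5000 cells per well; test concentration not given here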
Settings: higher = more signal
label 1 means recorded z-score is -0.5 or above; label 0 means it is below -0.5.

compound	cat
COc1ccc(C#Cc2ccc3c(c2)[C@]2(C(=O)N3)[C@H](c3ccc(O)cc3)N3[C@H](c4ccccc4)[C@H](c4ccccc4)OC(=O)[C@H]3[C@@H]2C(=O)O)cc1	label 1
COC(=O)[C@H](Cc1ccccc1)N1CC(/C=C/C2CC2)=C[C@H]1[C@H](O)Cc1ccccc1	label 0
O=C(NCC(F)(F)F)[C@@H]1c2ccccc2C(=O)N(Cc2ccccc2C(F)(F)F)[C@H]1c1ccc(CO)cc1	label 0
COCCOC(=O)N1C(=O)[C@@]2(c3cc(C#CCC(C(=O)OC)C(=O)OC)ccc31)[C@H](C(=O)N1CCc3cc(OC)c(OC)cc3C1)[C@H]1C(=O)O[C@H](c3ccccc3)[C@H](c3ccccc3)N1[C@@H]2c1ccc(OCCO)cc1	label 1
[N-]=[N+]=NCc1ccccc1[C@@H]1OC(c2ccc(OCCCO)cc2)=N[C@]1(CCS(=O)(=O)c1ccccc1)C(=O)NCC(O)CO (some centres not stated)	label 1
CCCNC(=O)[C@@H]1c2ccccc2C(=O)N(C(C)C)[C@H]1c1ccc(CO)cc1	label 1

====

Experiment: small-molecule microarray binders of probe aEGFR, primary screen, biochemical, biotinylated probe, 635/667 nm fluorescence (AID 1097);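 also: probe is a biotinylated anti-EGFR antibody binding compounds printed on slides; score combines fluorescence near 667 nm and signal to noise of each spot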
Conditions: higher = more signal

molecule	composite z-score
COCCOC(=O)N1C(=O)[C@@]2(c3cc(C#CC4=CCCCC4)ccc31)[C@H](c1ccc(OCCO)cc1)N1[C@H](c3ccccc3)[C@H](c3ccccc3)OC(=O)[C@H]1[C@@H]2C(=O)N1CCN(c2ncccn2)CC1	0.0289
COC(=O)Cn1c(C(=O)N(C)C)cc2c1C[C@H]1CN(C(=O)c3ccccc3)[C@@](Cc3ccc(F)cc3)(C(=O)OC)[C@@H]21	0.561
C[C@]1(C(=O)NC2CC2)c2ccccc2C(=O)N(Cc2ccccc2)[C@H]1c1ccc(CO)cc1	-0.278
Cc1ccc(S[C@]2(C(=O)NCCCN(C)C)CC(=O)N(C3CCCCC3)[C@@H]2c2ccc(CO)cc2)cc1	-0.106
[N-]=[N+]=NCc1ccccc1[C@H]1OC(c2ccc(OCCCO)cc2)=N[C@@]1(CCS(=O)(=O)c1ccccc1)C(=O)N1CCCCC1	0.283
COC(=O)c1c2oc(c1C(=O)OC)C(=O)N(Cc1ccccc1)Cc1cn(nn1)C[C@H](Cc1ccccc1)NC(=O)N[C@H](CO)CC2	-0.11
COCCCNC(=O)[C@@]1(Cc2ccccc2N=[N+]=[N-])N=C(c2ccc(OCCCO)cc2)O[C@H]1c1ccccc1	-0.096
COc1ccc(NC(=O)O[C@H]2[C@H](OC(=O)Nc3ccccc3)[C@@H](OC(=O)Nc3ccccc3)[C@@H](OC)O[C@@H]2CO)cc1	-0.0054
O=C1O[C@H](c2ccccc2)[C@H](c2ccccc2)N2[C@H]1[C@@H](C(=O)Nc1nc3ccccc3s1)[C@]1(C(=O)Nc3ccc(C#CCCO)cc31)[C@H]2c1ccc(O)cc1	0.346
COC(=O)[C@@]1(Cc2ccc(F)cc2)[C@H]2c3cc(C(=O)N4CCCC4)n(CCN4CNCC4=O)c3C[C@H]2CN1C(=O)c1ccccc1	0.118
C=CCC(OC(C)=O)[C@@H]1[C@@H](N(Cc2cccc3ccccc23)C(=O)Cc2ccc(OC)cc2)c2cc(OCCCO)ccc2N1C(=O)c1ccc2ccccc2n1 (some centres undefined)	-0.144
CN1C(=O)C2C=CC(C(O)c3cccc4ccccc34)N(N3CCCCC3)C2C1=O (centres undefined)	0.299
COCCCNC(=O)[C@]1(CCS(=O)(=O)c2ccccc2)N=C(c2ccc(OCCCO)cc2)O[C@@H]1c1ccccc1CN=[N+]=[N-]	0.455
COC(=O)[C@@]1(Cc2ccc(OC)cc2)[C@H]2c3cc(C(=O)N(C)C)n(CCO)c3C[C@H]2CN1C(=O)c1ccccc1	-0.0521
